Readings of activation at 1 µM for the listed molecules
- Assay Target: glucocerebrosidase (Gcase) (Homo sapiens, UniProt P04062)
- Construct: micellar solution containing 10 nM GCase and 100 nM saposin C
- Sequence (P04062 40-536): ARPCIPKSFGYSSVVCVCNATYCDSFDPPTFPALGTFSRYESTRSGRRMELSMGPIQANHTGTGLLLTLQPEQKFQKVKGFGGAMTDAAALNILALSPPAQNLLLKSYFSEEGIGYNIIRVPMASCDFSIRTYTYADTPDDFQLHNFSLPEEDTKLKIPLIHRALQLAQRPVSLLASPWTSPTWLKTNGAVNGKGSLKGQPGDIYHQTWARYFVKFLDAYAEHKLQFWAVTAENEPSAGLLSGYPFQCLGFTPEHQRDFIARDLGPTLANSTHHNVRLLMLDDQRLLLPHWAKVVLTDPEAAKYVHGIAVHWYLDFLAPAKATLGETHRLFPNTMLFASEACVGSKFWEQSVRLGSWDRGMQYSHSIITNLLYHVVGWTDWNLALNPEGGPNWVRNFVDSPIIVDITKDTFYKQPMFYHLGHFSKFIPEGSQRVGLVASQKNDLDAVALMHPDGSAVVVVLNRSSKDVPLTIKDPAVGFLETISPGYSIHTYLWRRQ
- Method Notes: Glucocerebrosidase (Gcase) activation assay, 4-methylumbelliferyl-beta-D-glucopyranoside substrate, with saposin C
- Type: biochemical
- Cond: 1 μM test compound; 10 nM GCase, 100 nM saposin C, pH 4.7; read-out: Percent Gease Activation 1 μM Test Compound

Molecule: Cc1cc(C)n2cnc(C(=O)NC3Cc4ccccc4C3)c2n1 [III-67]
activation at 1 µM: < 30%

Molecule: COc1ccccc1[C@@H](C)NC(=O)c1ncn2c(C)cc(C)nc12 [III-76]
activation at 1 µM: 30 to 60%

Molecule: C#Cc1ccc(NC(=O)c2ncn3c(C)cc(C)nc23)cn1 [III-5]
activation at 1 µM: < 30%

Molecule: Cc1cc(C)n2cnc(C(=O)NC3CCc4ccccc43)c2n1 (centres unmarked) [III-68]
activation at 1 µM: < 30%

Molecule: Cc1cc(C)n2cnc(C(=O)N[C@H]3CC[C@H](OC4CCC(C)(C)CC4)CC3)c2n1 [III-46]
activation at 1 µM: > 60%

###

- Assay Target: glucocerebrosidase (Gcase) (Homo sapiens)
- Construct: micellar solution containing 10 nM GCase and 100 nM saposin C
- Method Notes: Glucocerebrosidase (Gcase) activation assay, 4-methylumbelliferyl-beta-D-glucopyranoside substrate, with saposin C
- Format: biochemical
- Cond: 0.1 μM test compound; 10 nM GCase, 100 nM saposin C, pH 4.7; read-out: Percent Gease Activation 0.1 μM Test Compound
Readings of activation at 0.1 µM for the listed compounds

Compound: Cc1cc(C)n2cnc(C(=O)Nc3ccc(Cl)c(COc4cccnc4)c3)c2n1
activation at 0.1 µM: 10 to 20%
//
Compound: Cc1cc(C)n2cnc(C(=O)Nc3ccc(C)c(-c4ncco4)c3)c2n1
activation at 0.1 µM: 10 to 20%
//
Compound: Cc1cc(C)n2cnc(C(=O)Nc3ccc(-c4ncco4)cc3)c2n1
activation at 0.1 µM: < 10%
//
Compound: Cc1cc(C)n2cnc(C(=O)NC3(C)CCCc4ccccc43)c2n1 (stereo not drawn)
activation at 0.1 µM: < 10%
//
Compound: Cc1cc(C)n2cnc(C(=O)Nc3ccc4oc(-c5ccncc5)nc4c3)c2n1
activation at 0.1 µM: < 10%
//
Compound: Cc1cc(C(C)C)n2cnc(C(=O)NC3(C)CCOc4c(F)cccc43)c2n1 (stereo not drawn)
activation at 0.1 µM: < 10%
//
Compound: CCCCCO[C@H]1CC[C@H](NC(=O)c2ncn3c(C)cc(C)nc23)CC1
activation at 0.1 µM: 10 to 20%
//
Compound: Cc1cc(C)n2cnc(C(=O)N[C@H](C)c3ccc(Cl)cc3)c2n1
activation at 0.1 µM: < 10%
//
Compound: Cc1cc(C)n2cnc(C(=O)Nc3ccc(-c4ccco4)nc3)c2n1
activation at 0.1 µM: < 10%

###

Readings of solubility for the listed compounds
- Method Notes: Compound solubility in water
- Assay type: physicochemical

Compound: Cc1cc(C)n2cnc(C(=O)NC3(C)CCCc4ccccc43)c2n1 (stereo not shown) [III-36]
solubility [µg/mL]: 11.9
--
Compound: CCC(C)(NC(=O)c1ncn2c(C)cc(C)nc12)c1ccc(F)cc1 (stereo not shown) [III-43]
solubility [µg/mL]: 14.7
--
Compound: [2H]C1(NC(=O)c2ncn3c(C)cc(C)nc23)CCCCc2ccccc21 (stereo not shown) [III-38]
solubility [µg/mL]: 14.9
--
Compound: Cc1cc(C(C)C)n2cnc(C(=O)N[C@H]3CCCc4ccccc43)c2n1 [III-35]
solubility [µg/mL]: 21.6
--
Compound: Cc1cc(C)n2cnc(C(=O)Nc3ccc4c(c3)CCNC4)c2n1 [III-16]
solubility [µg/mL]: 29.9
--
Compound: CCCCCCO[C@H]1CC[C@H](NC(=O)c2ncn3c(C)cc(C)nc23)C1 [III-47]
solubility [µg/mL]: 30.6
--
Compound: CCCOc1cccc(C(C)(C)NC(=O)c2ncn3c(COC)c(OC)c(C)nc23)c1 [III-53]
solubility [µg/mL]: 52.9
--
Compound: COCc1cc(C2CC2)n2cnc(C(=O)NC3(C)CCOc4c(F)ccc(F)c43)c2n1 (stereo not shown) [III-72]
solubility [µg/mL]: 23.6
--
Compound: C#Cc1cccc(C(C)(C)NC(=O)c2ncn3c(C)cc(C)nc23)c1 [III-41]
solubility [µg/mL]: 7.6
--
Compound: COc1ccccc1[C@@H](C)NC(=O)c1ncn2c(C)cc(C)nc12 [III-76]
solubility [µg/mL]: 23
--
Compound: Cc1cc(C)n2cnc(C(=O)Nc3ccc4nc(C)sc4c3)c2n1 [III-21]
solubility [µg/mL]: 1.1
--
Compound: CCC(NC(=O)c1ncn2c(C)cc(C)nc12)c1ccc(F)cc1 (stereo not shown) [III-78]
solubility [µg/mL]: 39.5
--
Compound: COc1ccc(F)cc1C(C)NC(=O)c1ncn2c(C)cc(C)nc12 (stereo not shown) [III-79]
solubility [µg/mL]: 32
--
Compound: COCc1cc(C(C)C)nc2c(C(=O)NC(C)(C)c3cccc(OC4CC4)c3)ncn12 [III-58]
solubility [µg/mL]: 28.9
--
Compound: CCCCCO[C@H]1CC[C@H](NC(=O)c2ncn3c(C)cc(C)nc23)CC1 [III-70]
solubility [µg/mL]: 19.6
--
Compound: Cc1cc(C)n2cnc(C(=O)N[C@@H](C)c3cccc(Cl)c3)c2n1 [III-77]
solubility [µg/mL]: 26
--
Compound: COCC#Cc1ccc(NC(=O)c2ncn3c(C)cc(C)nc23)cc1 [III-2]
solubility [µg/mL]: 5.8
--
Compound: Cc1cc(C)n2cnc(C(=O)Nc3ccc4[nH]c(C)cc4c3)c2n1 [III-7]
solubility [µg/mL]: 0.7
--
Compound: Cc1cc(C)n2cnc(C(=O)Nc3ccc4oncc4c3)c2n1 [III-18]
solubility [µg/mL]: 2.3
